Experiment: chemical genetic growth profiling, strain panel (AID 1159580);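 further: tested at 20 µM; growth read once vehicle control cultures reached saturation at 30 °C; lower values mean less growth of the strain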
Conditions: S. cerevisiae deletion strains, growth OD, locus YPL256C, strain CLN2
The whole screen tested about 5,500 compounds, of which about 2,000 (36%) were called active. Roughly 18% stayed inconclusive and do not appear here. No stated cut-off is given here; in the data, active means normalized growth mostly below about 0.91 (no sharp cut-off); inconclusive means no clear call, values can overlap the other calls; inactive means mostly above about 0.92. The list shows a part of the results.
Your response should consist of one outcome taken from active, inactive

Example results:
[[record]]
compound = "CC1(C)O[C@H]2CC(=O)OC[C@]23[C@H]2CC[C@@]4(C)[C@H](c5ccoc5)OC(=O)[C@H]5O[C@]54[C@]2(C)C(=O)C[C@@H]13"
cat = "inactive"

[[record]]
compound = "CC1(C)C2CC(=O)[C@]3(C)C(CC[C@@]4(C)[C@H](c5ccoc5)OC(=O)[C@H]5O[C@]543)[C@@]2(C)C(=O)C[C@H]1O (some centres undefined)"
cat = "inactive"

[[record]]
compound = "Cc1ccc(C)n1-c1ccc(/C=C2/C(=O)Nc3ccccc32)cc1"
cat = "active"

[[record]]
compound = "CC(=O)O[C@@H]1CC2C(C)(C)C(=O)C=C[C@]2(C)C2CC[C@@]3(C)[C@H](c4ccoc4)OC(=O)[C@H]4O[C@]43[C@@]21C (some centres undefined)"
cat = "inactive"

[[record]]
compound = "CC(C)(C)C(=O)NC(=S)N/N=C\\c1cc(Cl)cc(Cl)c1O"
cat = "active"

[[record]]
compound = "CCCCCc1c2c(cc(O)c1C(=O)O)OC(=O)c1c(cc(OC)cc1C(=O)CCCC)O2"
cat = "inactive"


Q. How was COCCCNC(=S)N/N=C\c1cc(Br)ccc1O classified in this test?
A. inactive

Q. Query: recorded result category for FC(F)(F)c1cccc(NC(=S)NN=C2CCCCCC2)c1 in this test
A. active

Q. For this compound, state the assay outcome: O=C1Nc2ccccc2/C1=C/c1ccc(Oc2ccccc2)nc1
A. active
